Source: ChEMBL document CHEMBL4513216

Measurement protocol: Toxicity liver stage against HepG2, at 10uM
Type: cell-based
Set-up: test concentration 10 uM, cell line HepG2-A16-CD81EGFP
Condition set: human, HepG2-A16-CD81EGFP cells; read-out: INHIBITION
Consider the following compounds; for each one, report its cytotoxicity at 10 µM.
Answers are plain numbers, in %.

> print(dat)
                                   compound          assay.readout  obs.value
1  CCNC(=O)NC(=O)CN1CCOC(c2ccc(Br)cc2)C1 (stereo not drawn)  cytotoxicity at 10 µM       2.08
2  Cc1cc(C)nc(C2CCCN2c2ccnc(C)n2)n1 (stereo not drawn)  cytotoxicity at 10 µM      -16.4
3          COC(=O)c1ccc(NC(=O)CCc2ccco2)cc1  cytotoxicity at 10 µM      -10.5

Please report cytotoxicity at 10 µM for every entry that follows.
1. CC(C)c1nc(CN2CCN(Cc3ccccn3)CC2)cs1
2. Cc1c(C2CCOC(C)(C)C2)nc(N)c(C#N)c1-c1ccc(O)cc1 (stereo not drawn)
3. Cc1cc(N2CCN(CC(=O)N(C)C)CC2)nc(-c2ccncc2)n1
4. NC(=O)NC(=O)C(c1ccccc1)N1CCN(Cc2ccsc2)CC1 (stereo not drawn)
5. COCC(=O)N1CCCN(Cc2cc(C(C)C)no2)CC1
6. CCOC(=O)N1CCN(c2nc(NCCCO)c3ccccc3n2)CC1
7. COCc1nc(C(=O)N2CCCC(n3cccn3)C2)cs1 (stereo not drawn)

1. -4.41
2. 22.8
3. -3.96
4. 1.94
5. 5.97
6. -9.21
7. -7.42

---

Consider the following compounds; for each one, report its cytotoxicity at 10 µM.
Measurement protocol: Toxicity liver stage against HepG2, at 10uM
Assay type: cell-based
Set-up: test concentration 10 uM, cell line HepG2-A16-CD81EGFP
Condition set: human, HepG2-A16-CD81EGFP cells; read-out: INHIBITION
One number for each entry, in %.

> print(dat)
                                   compound  obs.value
1       CN1CC=C(c2noc(CCC(=O)N3CCCC3)n2)CC1       4.87
2  COc1ccccc1C(O)CNc1c(C#N)c(=O)n(C)c(=O)n1C (stereo unspecified)       -2.9

Please report cytotoxicity at 10 µM for every entry that follows.
1. CCn1cc(CN(C)S(=O)(=O)N2CCCC2c2ccco2)cn1 (stereo unspecified)
2. CS(=O)(=O)N1CC2(CCCN2Cc2ccc(Cl)cc2)Cc2ccccc21 (stereo unspecified)
3. O=C(c1ccoc1)N1CCO[C@]2(CCC[C@@H]2COCc2ccncc2)C1
4. CNC(=O)CN(C)c1nc(-c2ccncc2)nc2c1CCN(C(C)=O)C2

1: 9.14; 2: 17; 3: 0.341; 4: -5.13

---

Consider the following molecules; for each one, report its cytotoxicity at 10 µM.
Measurement protocol: Toxicity liver stage against HepG2, at 10uM
Assay type: cell-based
Design: test concentration 10 uM, cell line HepG2-A16-CD81EGFP
Condition set: human, HepG2-A16-CD81EGFP cells; read-out: INHIBITION
One number for each entry, in %.

The following molecules have reported results that may help.
> print(dat)
                                   molecule          assay.readout  obs.value
1  O=C(c1ccc[nH]1)N1Cc2nccn2CC(Cn2ncccc2=O)C1 (stereo unspecified)  cytotoxicity at 10 µM       3.66
2  Cc1noc(C)c1CN1C(=O)[C@@H]2CC[C@H]1CN(Cc1cscn1)C2  cytotoxicity at 10 µM      0.854
3  Cc1noc([C@@H]2CCO[C@@H]3CCN(Cc4nccs4)C[C@@H]32)n1  cytotoxicity at 10 µM      -75.8
4    c1csc(-c2nc(CN3CCN(c4cnccn4)CC3)co2)c1  cytotoxicity at 10 µM      -5.67

Please report cytotoxicity at 10 µM for every entry that follows.
1. CCOc1ccccc1NC(=O)NCc1ccoc1
2. Cc1ccc(C2COCCN2C(=O)c2cccc(N(C)C)c2)o1 (stereo unspecified)

-0.335
8.99

---

Consider the following molecules; for each one, report its cytotoxicity at 10 µM.
Measurement protocol: Toxicity liver stage against HepG2, at 10uM
Assay type: cell-based
Set-up: test concentration 10 uM, cell line HepG2-A16-CD81EGFP
Condition set: human, HepG2-A16-CD81EGFP cells; read-out: INHIBITION
Answers are plain numbers, in %.

> print(dat)
                                   molecule  obs.value
1            CCOCc1ccc(CNc2nc(OC)ncc2Cl)cc1       13.2
2         Cc1ccc(-c2cc(C3CCNCC3)nc(C)n2)cc1       9.63
3  CC1CCc2nn(CCNC(=O)c3cccs3)c(=O)cc2C1 (centres undefined)         17
4  COc1ccc(-c2nc(C#N)c(N(C)C)o2)cc1S(=O)(=O)N(C)C      -7.19
5  NC(=O)COc1ccc(CN2CC[C@@]3(O)CCCC[C@H]3C2)cc1Cl      -6.87

Please report cytotoxicity at 10 µM for every entry that follows.
1. Cc1cccc2nc(CN3CCC(Cn4ccnn4)CC3)cc(=O)n12
2. c1ccc(OCCCN2CCOC(CNc3cccnn3)C2)cc1 (centres undefined)
3. Cc1nn(CCN2CCSCC2)cc1CNCc1ccccn1

1. 2.62
2. -0.906
3. 2.28

---

Measurement protocol: Toxicity liver stage against HepG2, at 10uM
Assay type: cell-based
Parameters: test concentration 10 uM, cell line HepG2-A16-CD81EGFP
Condition set: human, HepG2-A16-CD81EGFP cells; read-out: INHIBITION
Consider the following molecules; for each one, report its cytotoxicity at 10 µM.
Param answer (str): number followed by unit.

> print(dat)
                               smiles          assay.readout  obs.value
1  Cn1nc(CN2CCOCC2)c2c1CN(Cc1ccsc1)C2  cytotoxicity at 10 µM      -145%
2       CCCc1cc(CN(C)C2CSCCSC2)n[nH]1  cytotoxicity at 10 µM     0.786%

Please report cytotoxicity at 10 µM for every entry that follows.
1. Cc1nnc(N2C[C@H](OCc3ccncc3)[C@H]3OCCC[C@H]32)s1
2. CCOc1ccccc1NC(=O)CN(C)Cc1ccccc1Cl
3. O=S(=O)(c1ccc(Cl)cc1)N1C[C@@H]2CCN[C@@H]2C1
4. CN1CCN([C@@H]2CCN(C(N)=O)[C@H]2Cc2ccccc2)CC1

1. 13.6%
2. -6.93%
3. -1.89%
4. 2.41%

---

Measurement protocol: Toxicity liver stage against HepG2, at 10uM
Format: cell-based
Design: test concentration 10 uM, cell line HepG2-A16-CD81EGFP
Condition set: human, HepG2-A16-CD81EGFP cells; read-out: INHIBITION
Consider the following compounds; for each one, report its cytotoxicity at 10 µM.
Answers are plain numbers, in %.

Please report cytotoxicity at 10 µM for every entry that follows.
1. O=C(CN(CC1CCC1)CC(F)(F)F)N1CCOCC1
2. Cc1cc(-c2cnc(N3CCN(C)CC3)nc2-c2ccc(C)s2)on1
3. Cc1cc(C)c2nc(CN3C[C@H](CCO)[C@@H](N)C3)cc(O)c2c1
4. CN1CCc2c(C#N)c(NCc3cccnc3)n3cnnc3c2C1
5. CSc1ncccc1C(=O)NCCC(O)c1ccco1 (configuration not stated)
6. O=C(NCCN1CCCC(CO)C1)c1ccc2scnc2c1 (configuration not stated)
7. CN1CCC2(Cc3ccccc3CN(C(=O)Cc3cccc(Cl)c3)C2)C1 (configuration not stated)

[-13.1, -3.68, 5.29, 11.2, -2.93, 8.61, 6.91]

Please report cytotoxicity at 10 µM for every entry that follows.
1. Cc1ccc(N2CCCN(CC3CC3)C(C(C)C)C2)nn1 (configuration not stated)
2. COCC(=O)N[C@H](C(=O)NC(C)c1cc(C)ccc1C)C(C)C (some centres not stated)
3. Cc1cnc(CN2CCCC2c2noc(C)n2)cn1 (configuration not stated)
4. CN(Cc1ccncn1)C(=O)CCc1[nH]nc2c1CCCC2
5. CC(=O)c1ccc(C(=O)N(C)Cc2nc(-c3ccccn3)no2)s1

13.3
0.341
3.78
3.11
2.45

---

Measurement protocol: Toxicity liver stage against HepG2, at 10uM
Format: cell-based
Design: test concentration 10 uM, cell line HepG2-A16-CD81EGFP
Condition set: human, HepG2-A16-CD81EGFP cells; read-out: INHIBITION
Assign true to entries whose cytotoxicity at 10 µM meets or exceeds -10%; assign false to the rest.

> print(dat)
                                   compound  group.label
1  Cc1ccn(CCC(=O)N2CCOC(c3nc(-c4cccs4)no3)C2)n1 (stereo unspecified)         true
2  Cc1nccn1C1CCCN(C(=O)COCC(F)(F)F)C1 (stereo unspecified)        false
3  CCCS(=O)(=O)NCC1CCOc2ccccc2C1 (stereo unspecified)         true

Decide: is the reported value of cytotoxicity at 10 µM for CN(C)[C@@H]1CCN(C(=O)C2CCOCC2)[C@H]1Cc1ccncc1 equal to or greater than -10%?
true

Query O=C(NCCCn1nc2ccccn2c1=O)Nc1ccccc1 next
false

Query CSc1nnc(N(CCC#N)CCC#N)s1 next
true
